ED50 reference
# Test system: Rattus norvegicus
# METHOD NOTES: Effective dose against passive cutaneous anaphylaxis in rat when administered perorally.
# Format: functional
# MEASUREMENT PARAMETERS: po
Report as a plain number; the unit mg/kg is understood.

Worked examples, 2 molecules total:
O=c1[nH]c2cc3c(cc2oc1=O)CCCC3 | 96
COc1cccc2[nH]c(=O)c(=O)oc12 | 14

With Rattus norvegicus as the test system, COc1cc2[nH]c(=O)c(=O)oc2cc1OC showed ED50 of 20

====

# Species: Rattus norvegicus
# METHOD NOTES: Concentration required to inhibit antigen-induced release of histamine (AIR) by 50% from passively sensitized rat mast cells
# Type: functional, cell-based
# MEASUREMENT PARAMETERS: read-out: I50
Examples of compounds with documented IC50 follow.
Express your answer in µM, writing the number without its unit.

Some entries whose results are on file:
O=c1[nH]c2ccc(O)cc2oc1=O | 170
O=C([O-])c1cc(=O)c2c(OCC(O)COc3cccc4oc(C(=O)[O-])cc(=O)c34)cccc2o1.[Na+].[Na+] [CROMOLYN SODIUM] | 4.5
O=c1[nH]c2cc3oc(=O)c(=O)[nH]c3cc2oc1=O | 1.2

Pending compound:
Notebook: CCOC(=O)C(=O)Nc1ccc2oc(=O)c(=O)[nH]c2c1 , IC50 read as 60
